B1: SCNN1D (parent)
chain: FYRLYQDLETHRLPCTSRCPRPCR

Variants of: B1
Assay: protein stability index of a GFP-peptide fusion (GPS, HEK-293T) (PSI 1-6); higher = more stable;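 also: lentivirally expressed fusions sorted by FACS into six bins by GFP to DsRed ratio, PSI derived from sequencing read proportions per bin multiplied by bin number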
Settings: c terminus: a fixed tail appended
Reported protein stability index values for the following variants.

Previously resolved entries follow.
mutationdescriptor=C19Y quantitykind="protein stability index" recordedmeasurement=1.88
mutationdescriptor=D7P quantitykind="protein stability index" recordedmeasurement=2.44
mutationdescriptor=Y2E quantitykind="protein stability index" recordedmeasurement=4.26
mutationdescriptor=E9C quantitykind="protein stability index" recordedmeasurement=1.66
mutationdescriptor=H11K quantitykind="protein stability index" recordedmeasurement=1.96
mutationdescriptor=D7M quantitykind="protein stability index" recordedmeasurement=1.39
mutationdescriptor=R12P quantitykind="protein stability index" recordedmeasurement=2.64
mutationdescriptor=S17R quantitykind="protein stability index" recordedmeasurement=2.56
mutationdescriptor=T10K quantitykind="protein stability index" recordedmeasurement=2.47
mutationdescriptor=R3Q quantitykind="protein stability index" recordedmeasurement=2.71

Now examine the next entry.
protein stability index reported for this variant L13E : 3.25
